Here the recorded PBM binding z-score is given for each entry.
test system: THRa homodimer (NR concentration 90 nM); experiment: PBM binding z-score (relative to random genomic background probes); higher = stronger binding; sequences stand for … in GC…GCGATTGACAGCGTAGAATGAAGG
A bare number is all that is needed in reply.

ACTAGCAGGCCTAGGGTCACTCAAGATTAGTCCG    2.26
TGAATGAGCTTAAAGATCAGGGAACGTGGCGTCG    -0.628
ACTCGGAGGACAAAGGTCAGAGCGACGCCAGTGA    0.5
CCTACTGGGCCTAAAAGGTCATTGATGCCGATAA    0.544
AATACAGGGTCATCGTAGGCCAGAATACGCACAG    1.5

Which PBM binding z-score value is on record for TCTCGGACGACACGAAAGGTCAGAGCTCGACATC ?
0.521

Entry to check: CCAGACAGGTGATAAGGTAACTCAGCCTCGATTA
1.72

Entry to check: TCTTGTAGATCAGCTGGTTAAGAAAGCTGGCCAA
-1.3

Entry to check: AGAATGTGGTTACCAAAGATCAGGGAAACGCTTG
-0.409

Entry to check: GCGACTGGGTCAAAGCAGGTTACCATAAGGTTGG
0.279

Entry to check: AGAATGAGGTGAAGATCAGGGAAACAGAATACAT
1.32

Entry to check: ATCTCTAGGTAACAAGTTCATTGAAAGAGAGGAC
1.24

Entry to check: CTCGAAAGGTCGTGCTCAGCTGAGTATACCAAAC
-0.199
